// Monkey NPR1 Amax (% of ANP) lookup, one value per entry
Molecular target: monkey NPR1 (Macaca fascicularis, UniProt A0A7N9DBT9)
Sequence (A0A7N9DBT9 entry or part of it): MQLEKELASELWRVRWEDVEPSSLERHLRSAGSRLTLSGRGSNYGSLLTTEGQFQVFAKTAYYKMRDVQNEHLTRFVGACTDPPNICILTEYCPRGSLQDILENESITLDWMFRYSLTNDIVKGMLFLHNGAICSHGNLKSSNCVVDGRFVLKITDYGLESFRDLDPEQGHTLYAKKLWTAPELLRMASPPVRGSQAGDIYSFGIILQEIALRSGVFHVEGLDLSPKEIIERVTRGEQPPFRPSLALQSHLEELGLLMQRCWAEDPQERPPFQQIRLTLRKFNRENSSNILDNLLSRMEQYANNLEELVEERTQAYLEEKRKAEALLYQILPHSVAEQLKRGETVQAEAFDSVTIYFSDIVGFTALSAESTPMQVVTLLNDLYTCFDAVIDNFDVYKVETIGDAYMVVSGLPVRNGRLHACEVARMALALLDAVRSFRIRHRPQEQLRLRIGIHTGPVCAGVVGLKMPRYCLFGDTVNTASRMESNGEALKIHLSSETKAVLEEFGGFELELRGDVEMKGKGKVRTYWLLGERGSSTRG
Assay: Cellular cGMP production assay, monkey NPR1 expressing CHO-K1 cells (CisBio HTRF)
Assay type: cell-based
Conditions: maximum cGMP production as percentage of the maximum cGMP produced with ANP, monkey NPR1 CHO-K1 cells
endpointLabel: Monkey NPR1 Amax (% of ANP)

[[record]]
molecule = "CC[C@@H](N(C)c1nc2c(c(N[C@@H](CN3CCC[C@H](CF)C3)c3cnn(C)c3)n1)C[C@](C)(c1ccccc1)CC2)C12CC(C(=O)O)(C1)C2 [Compound 12]"
subjectoftest = "monkey NPR1 (Macaca fascicularis, UniProt A0A7N9DBT9)"
valuemeasured = "95.099 % of ANP"

[[record]]
molecule = "CC[C@H](N(C)c1nc2c(c(N[C@@H](CN3CCC[C@@H](CF)C3)c3cnn(C)c3)n1)C[C@@](C)(c1ccccc1)CC2)C12CC(C(=O)O)(C1)C2 [Compound 36]"
subjectoftest = "monkey NPR1 (Macaca fascicularis, UniProt A0A7N9DBT9)"
valuemeasured = "101.251 % of ANP"

[[record]]
molecule = "CC[C@@H](Nc1nc2c(c(N[C@@H](CN3CCC(F)CC3)c3cnn(C)c3)n1)C[C@H](c1ccccc1)CC2)[C@H]1CC[C@H](C(=O)O)CC1 [Compound 142]"
subjectoftest = "monkey NPR1 (Macaca fascicularis, UniProt A0A7N9DBT9)"
valuemeasured = "95.614 % of ANP"

[[record]]
molecule = "CC[C@@H](Nc1nc2c(c(N[C@@H](CN(C)C)c3ccccc3)n1)C[C@H](c1ccccc1)CC2)[C@H]1CC[C@H](C(=O)O)CC1 [Compound 165]"
subjectoftest = "monkey NPR1 (Macaca fascicularis, UniProt A0A7N9DBT9)"
valuemeasured = "87.861 % of ANP"

[[record]]
molecule = "CC[C@@H](Nc1nc2c(c(N[C@@H](CN3CCCCC3)c3scnc3C)n1)C[C@H](c1ccccc1)CC2)[C@H]1CC[C@H](C(=O)O)CC1 [Compound 114]"
subjectoftest = "monkey NPR1 (Macaca fascicularis, UniProt A0A7N9DBT9)"
valuemeasured = "113.348 % of ANP"

[[record]]
molecule = "CC[C@@H](Nc1nc2c(c(N[C@@H](CN3CCCC[C@H]3C)c3cnn(C)c3)n1)C[C@H](c1ccccc1)CC2)[C@H]1CC[C@H](C(=O)O)CC1 [Compound 90]"
subjectoftest = "monkey NPR1 (Macaca fascicularis, UniProt A0A7N9DBT9)"
valuemeasured = "106.347 % of ANP"


###

Target: monkey NPR1 (Macaca fascicularis, UniProt A0A7N9DBT9)
Assay: Cellular cGMP production assay, monkey NPR1 expressing CHO-K1 cells (CisBio HTRF)
Type: cell-based
Details: maximum cGMP production as percentage of the maximum cGMP produced with ANP, monkey NPR1 CHO-K1 cells
endpointLabel: Monkey NPR1 Amax (% of ANP)

[[record]]
molecule = "CC[C@@H](Nc1nc2c(c(N[C@@H](CN3CCCC3)c3ccccc3)n1)C[C@H](c1ccccc1)CC2)[C@H]1CC[C@H](C(=O)O)CC1"
endpointlabel = "Monkey NPR1 Amax (% of ANP)"
valuemeasured = "95.638 % of ANP"

[[record]]
molecule = "CC[C@H]([C@H]1CC[C@H](C(=O)O)CC1)N(C)c1nc2c(c(N[C@@H](CN3C4CCCC3CC4)c3ccnn3C)n1)C[C@H](c1cccc(F)c1)CC2"
endpointlabel = "Monkey NPR1 Amax (% of ANP)"
valuemeasured = "92.193 % of ANP"

[[record]]
molecule = "CC[C@@H](N(C)c1nc2c(c(N[C@@H](CN3C4CCCC3CC4)c3cnc(C)s3)n1)C[C@H](c1cccc(F)c1)CC2)C12CC(C(=O)O)(C1)C2"
endpointlabel = "Monkey NPR1 Amax (% of ANP)"
valuemeasured = "96.715 % of ANP"

[[record]]
molecule = "CC[C@H]([C@H]1CC[C@H](C(=O)O)CC1)N(C)c1nc2c(c(N[C@@H](CN3CCC[C@H](O)C3)c3cnn(C)c3)n1)C[C@H](c1ccccc1)CC2"
endpointlabel = "Monkey NPR1 Amax (% of ANP)"
valuemeasured = "91.227 % of ANP"

[[record]]
molecule = "CC[C@H]([C@H]1CC[C@H](C(=O)O)CC1)N(C)c1nc2c(c(N[C@@H](CN3CCC[C@H](CF)C3)c3cnn(C)c3)n1)C[C@H](c1cccc(F)c1)CC2"
endpointlabel = "Monkey NPR1 Amax (% of ANP)"
valuemeasured = "98.174 % of ANP"

[[record]]
molecule = "CC[C@@H](Nc1nc2c(c(N[C@@H](CN3CCC[C@H](C)C3)c3cnn(C)c3)n1)C[C@](C)(c1ccc(F)cc1)CC2)[C@H]1CC[C@H](C(=O)O)CC1"
endpointlabel = "Monkey NPR1 Amax (% of ANP)"
valuemeasured = "104.503 % of ANP"

[[record]]
molecule = "CC[C@H](N(C)c1nc2c(c(N[C@@H](CN3C4CCCC3CC4)c3cnn(C)c3)n1)C[C@](C)(c1ccccc1)CC2)C12CC(C(=O)O)(C1)C2"
endpointlabel = "Monkey NPR1 Amax (% of ANP)"
valuemeasured = "100.449 % of ANP"

[[record]]
molecule = "CC[C@@H](Nc1nc2c(c(N[C@@H](CN3CCCCC3)c3ccccc3)n1)C[C@@H](c1cccc(F)c1)CC2)[C@H]1CC[C@H](C(=O)O)CC1"
endpointlabel = "Monkey NPR1 Amax (% of ANP)"
valuemeasured = "107.224 % of ANP"

[[record]]
molecule = "CC[C@H]([C@H]1CC[C@H](C(=O)O)CC1)N(C)c1nc2c(c(N[C@@H](CN3CCC[C@H](CO)C3)c3cnn(C)c3)n1)C[C@H](c1cccc(F)c1)CC2"
endpointlabel = "Monkey NPR1 Amax (% of ANP)"
valuemeasured = "104.824 % of ANP"

[[record]]
molecule = "CC[C@H]([C@H]1CC[C@H](C(=O)O)CC1)N(C)c1nc2c(c(N[C@@H](CN3C4CCC3CC4)c3cnn(C)c3)n1)C[C@H](c1ccc(F)cc1)CC2"
endpointlabel = "Monkey NPR1 Amax (% of ANP)"
valuemeasured = "99.684 % of ANP"

[[record]]
molecule = "CC[C@H]([C@H]1CC[C@H](C(=O)O)CC1)N(C)c1nc2c(c(N[C@@H](CN3CCCC(C)(F)C3)c3cnn(C)c3)n1)C[C@H](c1ccccc1)CC2 (some centres unmarked)"
endpointlabel = "Monkey NPR1 Amax (% of ANP)"
valuemeasured = "152.392 % of ANP"


Numbers sourced from patent US12129246B1.
